System: TERT-RPE1
assayName: Here: values are normalized to the negative (DMSO; defined as 0% autophagy induction) and positive (250nM Torin1; mTOR inhibitor; defined as maximal inducer of autophagy = 100%) control compounds and represented as % of autophagy induction. […] The impact of autophagy induction on cells is complex and depends on the affected target. As such, the magnitude of a phenotype may not be equally mirrored in the %-value of autophagy induction and vice versa. The dynamics of the induction may indicate the mode of activation: e.g. activation via phosphorylation or a signaling cascade may occur fast, while activation via transcription factors may take considerably longer. […] Of note, treatment concentrations may be sub-optimal for specific compounds, leading to false negative annotations.
Type: functional, Homo sapiens
measurementSetup: Compound Concentration 10 uM, Timepoint 60 hours, Culturing Media DMEM/F12 (1:1), 1 % Penicillin/Streptomycin, 10% Fetal bovin serum Add-On: No, Screening Media Control DMEM/F12 (1:1), Screening Media Samples DMEM/F12 (1:1)
Some molecules, each annotated with its measured autophagy induction.
Give your result in % as a bare value.

// known answers, use as guide
1. Cc1cn2cc(CC(=O)N3CCC4(CC3)CN(Cc3ccc(-n5nccn5)cc3Cl)C4)nc2s1: 9.679
2. O=C(Cc1ccccc1)Nc1nc2ccc(Cl)cc2c2nc(-c3ccco3)nn12: 38.8225
3. CC(C)C[C@H](NC(=O)N1CCCCCC1)C(=O)N[C@H](Cc1cn(C)c2ccccc12)C(=O)N[C@H](Cc1ccccn1)C(=O)O: -13.6367
4. CCCCN(CCCC)C(=O)CN1C[C@@H](c2ccc3c(c2)OCO3)[C@H](C(=O)O)[C@H]1c1ccc(OC)cc1: -6.302
5. COc1ccc(C2(O)OC(=O)C(c3ccc4c(c3)OCO4)=C2Cc2cc(OC)c(OC)c(OC)c2)cc1 (centres undefined): -11.0822

Q: Reported autophagy induction for CCC(C)N(C)C(=O)c1cc2ccccc2c(-c2ccccc2Cl)n1 (centres undefined) : what is it?
Ans: 30.5956

meta.source: ChEMBL document CHEMBL5724696
